Provide the recorded pIC50 for the entries that follow.
target: HLA-B*57:01; assay: IEDB peptide-MHC binding, purified MHC/competitive/radioactivity; bounds were set here for any values at or beyond the usual limits of such assays; conditions: source organism: Bordetella pertussis
Numbers only, as −log10 of the molar value.

KTNMVVTSV = 5.36
LAAQVTQRG = 4.40

Now for another entry.
So what does the record say about pIC50 for "ATYIADSGF" ?
5.38

----------
target: HLA-B*35:01; test: IEDB peptide-MHC binding, purified MHC/competitive/radioactivity; bounds were set here for any values at or beyond the usual limits of such assays; settings: source organism: Bordetella pertussis
PARAMETER: IC50
Dear colleague, please send the value followed by its unit.

Quick check: IC50 of "LPEPVKLTL" ?
69.9 µM

Values compiled from the Immune Epitope Database (IEDB).
